# System: NCI-H358 cells expressing KRAS-G12C
# Test Summary: Growth inhibition of tumor cell line expressing KRAS-G12C (Cell Titer Glo), NCI-H358
# Format: cell-based
# Run Parameters: Homo sapiens, NCI-H358, 72 h
Recorded Metric: GI50 (nM)

INSERT INTO assay_data (compound, measurement_unit, val) VALUES
  ('C=CC(=O)N1C[C@@H]2C(=O)N(C)c3c(c4cc(Cl)c(-c5c(O)cccc5F)c(F)c4n(-c4c(C)ncnc4C(C)C)c3=O)N2C[C@H]1C [Compound 49A]', 'nM', 4),
  ('C=CC(=O)N1C[C@@H]2CN(CC(N)=O)c3c(c4cc(F)c(-c5c(O)cccc5F)c(F)c4n(-c4c(C)ccnc4C(C)C)c3=O)N2C[C@H]1C [Compound 44A]', 'nM', 424),
  ('C=CC(=O)N1C[C@@H]2COc3c(c4cc(F)c(-c5c(C)ccc6[nH]ncc56)nc4n(-c4ccccc4C(C)C)c3=O)N2C[C@H]1C (single isomer, unassigned) [Compound 13A]', 'nM', 59),
  ('C=CC(=O)N1C[C@@H]2C(=O)N(C)c3c(c4cc(Cl)c(-c5c(F)cccc5OC)c(F)c4n(-c4c(C)ccnc4C(C)C)c3=O)N2C[C@H]1C [Compound 42A]', 'nM', 9),
  ('C=CC(=O)N1C[C@@H]2CN(CCC(C)O)c3c(c4cc(F)c(-c5c(O)cccc5F)c(F)c4n(-c4c(C)ccnc4C(C)C)c3=O)N2C[C@H]1C (stereo partly drawn) [Compound 37A]', 'nM', 66),
  ('C=CC(=O)N1C[C@@H]2C(=O)N(C)c3c(c4cc(Cl)c(-c5c(O)cccc5F)c(F)c4n(-c4c(C)ccnc4C(C)C)c3=O)N2C[C@H]1C [Compound 23A-1]', 'nM', 104),
  ('C=CC(=O)N1C[C@@H]2C(=O)N(CCO)c3c(c4cc(F)c(-c5c(O)cccc5F)c(F)c4n(-c4c(C)ccnc4C(C)C)c3=O)N2C[C@H]1C [Compound 40A]', 'nM', 62),
  ('C=CC(=O)N1C[C@@H]2CN(C)c3c(c4cc(F)c(-c5c(O)cccc5F)c(F)c4n(-c4c(C)ccnc4C(C)C)c3=O)N2C[C@H]1C (atropisomer, axis not shown) [Compound 16A-1]', 'nM', 12),
  ('C=CC(=O)N1C[C@@H]2C(=O)N(C)c3c(c4cc(Cl)c(-c5c(O)cccc5F)nc4n(-c4c(C)ccnc4C(C)C)c3=O)N2C[C@H]1C [Compound 25A]', 'nM', 10),
  ('C=CC(=O)N1C[C@@H]2C(=O)N(C)c3c(c4cc(Cl)c(-c5c(F)cccc5OC)c(F)c4n(-c4c(C)ncnc4C(C)C)c3=O)N2C[C@H]1C', 'nM', 62),
  ('C=CC(=O)N1C[C@@H]2C(=O)N(CCN(C)C)c3c(c4cc(Cl)c(-c5c(O)cccc5F)c(F)c4n(-c4c(CC)ccnc4C(C)C)c3=O)N2C[C@H]1C (atropisomer, axis not shown) [Compound 54B-1]', 'nM', 7),
  ('C=CC(=O)N1C[C@@H]2COc3c(c4cc(F)c(-c5c(O)cccc5F)c(F)c4n(-c4c(C(C)C)ncnc4C(C)C)c3=O)N2C[C@H]1C [Compound 19A]', 'nM', 8),
  ('C=CC(=O)N1C[C@@H]2CN(C)c3c(c4cc(F)c(-c5c(O)cccc5F)nc4n(-c4ccccc4C(C)C)c3=O)N2C[C@H]1C [Compound 10A]', 'nM', 184),
  ('C=CC(=O)N1C[C@@H]2C(=O)N(CCN(C)C)c3c(c4cc(Cl)c(-c5c(F)cccc5OC)nc4n(-c4c(C)ccnc4C(C)C)c3=O)N2C[C@H]1C [Compound 30A]', 'nM', 208),
  ('C=CC(=O)N1C[C@@H]2C(=O)N(C)c3c(c4cc(Cl)c(-c5c(O)cccc5F)c(F)c4n(-c4c(CC)ccnc4C(C)C)c3=O)N2C[C@H]1C [Compound 53A-1]', 'nM', 2),
  ('C=CC(=O)N1C[C@@H]2COc3c(c4cc(F)c(-c5c(O)cccc5F)nc4n(-c4ccccc4C(C)C)c3=O)N2C[C@H]1C', 'nM', 143),
  ('C=CC(=O)N1C[C@@H]2COc3c(c4cc(F)c(-c5c(F)cccc5OC)nc4n(-c4c(C)ccnc4C(C)C)c3=O)N2C[C@H]1C (single isomer, unassigned)', 'nM', 41),
  ('C=CC(=O)N1C[C@@H]2C(=O)N(CCN(C)C)c3c(c4cc(Cl)c(-c5c(F)cccc5OC)c(F)c4n(-c4c(C)ccnc4C(C)C)c3=O)N2C[C@H]1C (atropisomer, axis not shown) [Compound 27A]', 'nM', 147),
  ('C=CC(=O)N1C[C@@H]2C(=O)N(CCN(C)C)c3c(c4cc(Cl)c(-c5c(O)cccc5F)c(F)c4n(-c4c(C)ccnc4C(C)C)c3=O)N2C[C@H]1C (atropisomer, axis not shown) [Compound 26A]', 'nM', 152),
  ('C=CC(=O)N1C[C@@H]2C(=O)N(C)c3c(c4cc(F)c(-c5c(O)cccc5F)c(F)c4n(-c4c(C(C)C)ncnc4C(C)C)c3=O)N2C[C@H]1C [Compound 20A]', 'nM', 4),
  ('C=CC(=O)N1C[C@@H]2CN(C)c3c(c4cc(F)c(-c5c(O)cccc5F)c(F)c4n(-c4c(C)ccnc4C(C)C)c3=O)N2C[C@H]1C (single isomer, unassigned) [Compound 16A]', 'nM', 20);
